B1: MFF (parent)
chain: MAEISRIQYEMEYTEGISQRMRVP

- Variants of: B1
- test description: protein stability index of a GFP-peptide fusion (GPS, HEK-293T) (PSI 1-6); higher = more stable;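 also: lentivirally expressed fusions sorted by FACS into six bins by GFP to DsRed ratio, PSI derived from sequencing read proportions per bin multiplied by bin number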
- details: c terminus: a fixed tail appended
# label = 1 if protein stability index >= 3 else -1

The examples below pair each entry with its known result.
T14E = 1
A2C = -1
S5G = -1
R22P = -1

## Input Decide: protein stability index of I4D >= 3?
## Output 1

## Input hey, is protein stability index for this one >= 3? I4E
## Output 1

## Input Quick check: does E10M have protein stability index greater than or equal to 3?
## Output -1

## Input Textbook exercise: given the entry I4P , state whether its protein stability index is greater than or equal to 3.
## Output 1

## Input Is protein stability index for R20F at or above 3?
## Output -1

## Input Is it the case that S18R has protein stability index reaching or exceeding 3?
## Output -1

## Input Entry S5A : is its protein stability index no less than 3?
## Output -1

## Input Exam item: decide whether the reported protein stability index for I7V is at least 3.
## Output -1

## Input Reported protein stability index reaches at least 3 for A2F ?
## Output -1

## Input # check: protein stability index of G16H is greater than or equal to 3
## Output -1

## Input Reported protein stability index reaches at least 3 for S5N ?
## Output -1

## Input # check: protein stability index of Y9E is greater than or equal to 3
## Output 1

## Input Exam item: decide whether the reported protein stability index for V23D is at least 3.
## Output 1

## Input Can M21Q be said to have protein stability index at or above 3?
## Output 1
